# Read-out: sulfotransferase (SULT2A), SULT2A1 (gene 6822)
# ASSAY_EXPLANATION: CLD_SULT2A_24hr: CellzDirect (CLD) Gene Expression Assay for sulfotransferase (SULT2A) at 24 hours (AID 2283694)
Results filed as inconclusive are left out. Calls of active or inactive are those of the source. How the source made its calls: active means hit-call score of the fitted dose curve at least 0.9, where 1 is the maximum; inconclusive means response in the unintended direction; inactive means score below 0.9.
Reply using exactly one outcome from active, inactive

Look over these answered cases.
CCOC1Oc2ccc(OS(C)(=O)=O)cc2C1(C)C (centres undefined) = inactive
CC[C@H](C)[C@H]1O[C@]2(C=C[C@@H]1C)C[C@@H]1C[C@@H](C/C=C(\C)[C@@H](O[C@H]3C[C@H](OC)[C@@H](O[C@H]4C[C@H](OC)[C@@H](O)[C@H](C)O4)[C@H](C)O3)[C@@H](C)/C=C/C=C3\CO[C@@H]4[C@H](O)C(C)=C[C@@H](C(=O)O1)[C@]34O)O2 (tested in a mixture with another compound) = active
COc1nn(CSP(=S)(OC)OC)c(=O)s1 = inactive
O=[N+]([O-])/N=C1\NCCN1Cc1ccc(Cl)nc1 = inactive
CCC(C)(NC(=O)c1cc(Cl)c(C)c(Cl)c1)C(=O)CCl (centres undefined) = inactive
CCCN(CCC)c1c([N+](=O)[O-])cc(C(F)(F)F)cc1[N+](=O)[O-] = inactive

// outcome(item) with item = `COP(=S)(OC)Oc1ccc([N+](=O)[O-])cc1`
inactive

// return assay outcome for CC(C)(C)C(O)C(Oc1ccc(Cl)cc1)n1cncn1 (centres undefined)
inactive

Recorded call for `CNC(=O)CSP(=S)(OC)OC` ?
inactive
